# System: HACAT
# testDescription: qHTS assay to identify novel small-molecules to repurpose for Merkel cell carcinoma treatment (AID 1296009); note: nearly all actives have a fitted effect of over 60% in size
# conditionParameters: MCC and control cell lines, CellTiter-Glo viability, 72 h; at 44.8 µM (top of the series) unless noted
# Text: MCC is a rare and aggressive neuroendocrine skin cancer with limited treatment options. Approximately 80% of MCCs have the Merkel cell polyomavirus (MCPyV) DNA integrated into the host genome (virus-positive: VP-MCC) and viral oncogenes drive oncogenesis. The remaining MCCs are virus-negative (VN-MCC) and are caused by UV mutagenesis. […] Using cell viability as a readout (CellTiter-Glo assay) we found both overlapping and distinct drugs that can be repurposed for the treatment of VP-MCC and VN-MCC. […]
Records with an inconclusive call do not appear. Activity calls are given as the source filed them. Calls come from the whole dose curve; as a rule, active = well fitted inhibition curve with a large enough effect; inconclusive = small, poorly fitted or top-dose-only effect; inactive = flat fitted curve, though single readings scatter.
measuredQuantity: outcome

[[record]]
compound = "OC[C@H]1OC(O)C[C@@H](O)[C@H]1O (stereo not given in full)"
result = "inactive"

[[record]]
compound = "O=c1c(O)c(-c2ccc(O)c(O)c2)oc2cc(O)ccc12"
result = "inactive"

[[record]]
compound = "C[C@@H](NCc1cc2ccccc2[nH]1)c1cccc2ccccc12"
result = "inactive"

[[record]]
compound = "CCCNS(=O)(=O)Nc1ncnc(OCCOc2ncc(Br)cn2)c1-c1ccc(Br)cc1"
result = "inactive"

[[record]]
compound = "Cc1ccc(O)c(C(CCN(C(C)C)C(C)C)c2ccccc2)c1 (stereo not given)"
result = "inactive"

[[record]]
compound = "c1ccc2c(Oc3nc(Nc4ccc(N5CCOCC5)cc4)c4ncn(C5CCCCC5)c4n3)cccc2c1"
result = "inactive"

[[record]]
compound = "CC1(C)CC(O)CC(C)(C)N1[O]"
result = "inactive"

[[record]]
compound = "C[N+]1(C)[C@@H]2C[C@@H](OC(=O)C(O)(c3cccs3)c3cccs3)C[C@H]1[C@@H]1O[C@@H]12"
result = "inactive"

[[record]]
compound = "Cn1cc(C=CC(=O)c2cccc(F)c2)cc1C=CC(=O)NO"
result = "inactive"

[[record]]
compound = "COC(=O)C1C2CC3c4[nH]c5cc(OC)ccc5c4CCN3CC2CC(OC(=O)c2cc(OC)c(OC)c(OC)c2)C1OC (stereo not given)"
result = "inactive"


###

# System: JEG-3
# testDescription: Primary qHTS to identify gynecologic anti-cancer compounds using libraries of approved drugs and bioactive compounds (AID 1345084); note: nearly all actives have a fitted effect of over 55% in size
# conditionParameters: Gynecologic cancer cell panel viability, ATPlite luminescence, 48 h; series mostly up to 57.5 µM
Records with an inconclusive call do not appear. Active and inactive are the calls of the source. The call rests on the fitted dose curve; in most records, active means well fitted cell-killing curve with a large enough effect; inconclusive means small, poorly fitted or top-dose-only effect, or effect the other way; inactive means flat fitted curve, though single readings scatter.
Labels: 1 (yes) = active, 0 (no) = inactive

[[record]]
compound = "C[N+]1(C)[C@@H]2C[C@@H](OC(=O)C(O)(c3cccs3)c3cccs3)C[C@H]1[C@@H]1O[C@@H]12"
studytarget = "JEG-3"
cat = "0 (no)"

[[record]]
compound = "CCOC(=O)[C@@H](N)Cc1ccc(-c2cc(O[C@H](c3ccc(Cl)cc3-n3ccc(C)n3)C(F)(F)F)nc(N)n2)cc1"
studytarget = "JEG-3"
cat = "0 (no)"

[[record]]
compound = "Cc1cncc2cccc(S(=O)(=O)N3CCCN(C(=O)CN)C[C@@H]3C)c12"
studytarget = "JEG-3"
cat = "0 (no)"

[[record]]
compound = "N[C@H]1CN(c2c(F)cc3c(=O)c(C(=O)O)cn(C4C[C@@H]4F)c3c2Cl)CC12CC2 (stereo not given in full)"
studytarget = "JEG-3"
cat = "0 (no)"

[[record]]
compound = "c1ccc2c(Oc3nc(Nc4ccc(N5CCOCC5)cc4)c4ncn(C5CCCCC5)c4n3)cccc2c1"
studytarget = "JEG-3"
cat = "0 (no)"

[[record]]
compound = "C[C@H](O)[C@@H]1C(=O)N2C(C(=O)O)=C(S[C@@H]3CN[C@H](CNS(N)(=O)=O)C3)[C@@H](C)[C@@H]12"
studytarget = "JEG-3"
cat = "0 (no)"

[[record]]
compound = "CCN(CC)Cc1ccc2cc(COC(=O)Nc3ccc(C(=O)NO)cc3)ccc2c1"
studytarget = "JEG-3"
cat = "1 (yes)"

[[record]]
compound = "Cc1cn([C@@H]2O[C@H](CO)[C@@H](O)[C@H]2F)c(=O)[nH]c1=O"
studytarget = "JEG-3"
cat = "0 (no)"

[[record]]
compound = "CCOc1cc2c(c(F)c1OCC)C(=N)N(CC(=O)c1cc(N3CCOCC3)c(OC)c(C(C)(C)C)c1)C2"
studytarget = "JEG-3"
cat = "0 (no)"

[[record]]
compound = "C=CC(=O)Nc1ccc2ncnc(Nc3ccc(OCc4cccc(F)c4)c(Cl)c3)c2c1"
studytarget = "JEG-3"
cat = "0 (no)"

[[record]]
compound = "O=C(O)c1ccc(Nc2ncc3c(n2)-c2ccc(Cl)cc2C(c2c(F)cccc2F)=NC3)cc1"
studytarget = "JEG-3"
cat = "0 (no)"

[[record]]
compound = "CCn1c(=O)c2c(nc(C=Cc3ccc(OC)c(OC)c3)n2C)n(CC)c1=O"
studytarget = "JEG-3"
cat = "0 (no)"

[[record]]
compound = "CN1CCc2c(c3ccccc3n2Cc2ccc(C(=O)NO)cc2)C1"
studytarget = "JEG-3"
cat = "0 (no)"

[[record]]
compound = "CCCCC(=O)O[C@]1(C(=O)CO)[C@@H](C)C[C@H]2[C@@H]3CCC4=CC(=O)C=C[C@]4(C)[C@@]3(F)[C@@H](O)C[C@@]21C"
studytarget = "JEG-3"
cat = "0 (no)"

[[record]]
compound = "OCCNC1CCCc2c1[nH]c1ccc(-c3ccccc3)cc21 (stereo not given)"
studytarget = "JEG-3"
cat = "0 (no)"

